All values here come from ChEMBL document CHEMBL1143544.

testTarget: D(4) dopamine receptor (Homo sapiens, UniProt P21917)
Sequence (P21917 whole entry): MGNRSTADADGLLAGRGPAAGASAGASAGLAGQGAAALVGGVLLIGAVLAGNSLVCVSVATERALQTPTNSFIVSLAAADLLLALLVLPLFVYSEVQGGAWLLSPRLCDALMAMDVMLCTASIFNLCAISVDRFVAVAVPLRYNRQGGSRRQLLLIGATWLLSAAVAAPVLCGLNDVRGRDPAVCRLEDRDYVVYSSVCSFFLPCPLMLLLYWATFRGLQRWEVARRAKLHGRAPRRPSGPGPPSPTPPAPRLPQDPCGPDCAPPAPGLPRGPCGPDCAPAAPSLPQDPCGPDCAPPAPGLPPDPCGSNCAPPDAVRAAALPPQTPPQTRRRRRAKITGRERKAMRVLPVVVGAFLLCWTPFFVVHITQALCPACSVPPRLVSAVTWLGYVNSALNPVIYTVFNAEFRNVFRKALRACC
method: biochemical
Description: Binding affinity towards human dopamine receptor D4 expressed in CHO cells was determined by using [3H]thymidine as radioligand
measuredMetric: pKi
Remember, pKi is on a log scale: it is -log10 of the molar concentration.

Previously resolved entries follow.
N#Cc1ccccc1N1CCN(CNC(=O)c2ccccc2)CC1; 7.62
Cc1ccc(C(=O)NCN2CCN(c3ccccc3C#N)CC2)cc1; 8.92
Cc1ccc(C(=O)NCN2CCN(c3ccccc3Cl)CC2)cc1; 6.66

Problem: Quickly give me recorded pKi for N#Cc1ccccc1N1CCN(CNC(=O)c2cccc(Cl)c2)CC1
Result: 8.28

---

method: Binding affinity of compound towards dopamine receptor D2 was determined
Set-up: species or system Homo sapiens
Measured Log 1/Ki, listed per entry.
Please state the value as a number alone, without comment.

Problem: Quickly give me recorded Log 1/Ki for COc1ccccc1N1CCN(CCCNc2ccn3c(n2)nc2c3c(=O)n(C)c(=O)n2C)CC1
Result: 5.93
